Target Entity: M1 family aminopeptidase (Plasmodium falciparum (isolate FcB1 / Columbia), UniProt O96935)
Sequence (O96935 whole entry): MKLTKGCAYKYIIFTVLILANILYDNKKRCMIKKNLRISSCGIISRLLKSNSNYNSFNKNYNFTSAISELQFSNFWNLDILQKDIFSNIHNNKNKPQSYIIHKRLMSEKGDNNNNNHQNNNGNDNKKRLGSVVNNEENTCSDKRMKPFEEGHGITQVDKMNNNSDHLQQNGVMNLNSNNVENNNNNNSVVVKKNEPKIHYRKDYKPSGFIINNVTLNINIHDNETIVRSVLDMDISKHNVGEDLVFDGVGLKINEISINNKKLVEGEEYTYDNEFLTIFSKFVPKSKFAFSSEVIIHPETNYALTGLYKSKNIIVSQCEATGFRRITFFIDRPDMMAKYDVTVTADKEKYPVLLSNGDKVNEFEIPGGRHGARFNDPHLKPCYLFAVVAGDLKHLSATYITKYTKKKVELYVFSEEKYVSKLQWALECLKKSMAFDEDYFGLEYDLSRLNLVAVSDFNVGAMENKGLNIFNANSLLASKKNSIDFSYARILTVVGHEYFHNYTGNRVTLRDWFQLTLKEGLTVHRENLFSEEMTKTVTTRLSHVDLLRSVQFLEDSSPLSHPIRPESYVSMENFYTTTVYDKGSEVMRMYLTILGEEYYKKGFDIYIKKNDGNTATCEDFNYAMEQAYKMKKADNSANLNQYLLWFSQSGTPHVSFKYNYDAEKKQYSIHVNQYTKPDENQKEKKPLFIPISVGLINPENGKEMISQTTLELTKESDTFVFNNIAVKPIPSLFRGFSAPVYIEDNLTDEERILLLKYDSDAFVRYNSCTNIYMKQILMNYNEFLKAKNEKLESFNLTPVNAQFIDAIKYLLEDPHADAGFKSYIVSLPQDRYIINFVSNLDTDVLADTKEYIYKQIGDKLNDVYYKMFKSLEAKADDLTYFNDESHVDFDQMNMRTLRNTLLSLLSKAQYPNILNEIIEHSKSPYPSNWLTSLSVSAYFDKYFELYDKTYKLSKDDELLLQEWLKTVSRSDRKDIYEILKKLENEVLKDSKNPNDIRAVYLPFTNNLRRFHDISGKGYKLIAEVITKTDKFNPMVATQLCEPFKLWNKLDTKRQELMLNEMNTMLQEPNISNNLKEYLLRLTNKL
Measurement Protocol: P. falciparum M1AAP inhibitors, biochemical, fluorogenic H-Leu-NHMec substrate, 1536-well (AID 1445)
Lab note - cut at 40 µM for IC50: 1 if strictly below, -1 if not.

Example entries begin here.
Compound | Answer Label
COc1ccccc1C1CC(c2ccc(Cl)cc2)=Nc2nc(-n3c(O)ccc3O)nn21 (stereo unspecified) | 1
O=C(O)c1cc(-c2ccc(CN=Nc3ccc([N+](=O)[O-])cn3)o2)ccc1Cl | 1
O=C(O)c1cccc(NC(=S)NN=Cc2ccccc2OCc2cccc(Br)c2)c1 | -1
C=c1c(C#N)c2[nH]c(N)c(C#N)c(C)c-2c1=Cc1ccc(-c2ccccc2C(=O)O)o1 | -1
COc1ccccc1-c1nnc(SCC(=O)C(C#N)c2nc3ccccc3[nH]2)n1C1CCCCC1 (stereo unspecified) | -1

Hello, is IC50 of the following compound strictly smaller than 40 µM? N#CC(C(=O)CSc1nnc(Cc2cccs2)n1C1CCCCC1)c1nc2ccccc2[nH]1 (stereo unspecified)
-1

Could you please tell me whether IC50 recorded for COC(=O)CN1C(=O)C2(c3ccccc31)c1c(-c3cccs3)n[nH]c1OC(=N)C2C#N (stereo unspecified) is less than 40 µM?
1

Please let me know if Cc1c(N2C(=O)C(=O)C(C(=O)c3ccc(Br)cc3)C2c2cccnc2)c(=O)n(-c2ccccc2)n1C (stereo unspecified) shows IC50 below 40 µM.
1

Answer whether the compound O=C(O)c1ccc(-c2ccc(CN=Nc3ccc([N+](=O)[O-])cc3)o2)cc1 has IC50 strictly less than 40 µM
-1

Determine whether this compound shows IC50 lower than 40 µM (ties excluded): Cc1cc(=O)[nH]c(N=NCc2c(O)n(-c3ccccc3)c(=O)c3ccccc23)n1
-1

In the record for COc1ccc(-c2n[nH]c3c2C2(C(=O)N(CC(=O)O)c4ccccc42)C(C#N)C(=N)O3)cc1OC (stereo unspecified) , is IC50 less than 40 µM?
-1

====

Target Entity: M1 family aminopeptidase (Plasmodium falciparum (isolate FcB1 / Columbia))
Measurement Protocol: P. falciparum M1AAP inhibitors, biochemical, fluorogenic H-Leu-NHMec substrate, 1536-well (AID 1445)
Classify by IC50. Ranges: Low: < 30 µM; Mid: ≥ 30 µM and < 50 µM; High: ≥ 50 µM

Record O=C(O)COc1ccccc1CN=Nc1ccc(S(=O)(=O)Nc2ccc(Cl)cc2)cc1[N+](=O)[O-] [MLS000774437] — which class?
Mid

Bin? O=C1CC(c2ccco2)CC(=O)C1=CNc1cc(Cl)ccc1O (stereo not given) [MLS000037985]
Low

====

Items are presented alongside their recorded IC50.
Target Entity: M1 family aminopeptidase (Plasmodium falciparum (isolate FcB1 / Columbia), UniProt O96935)
Measurement Protocol: P. falciparum M1AAP inhibitors, biochemical, fluorogenic H-Leu-NHMec substrate, 1536-well (AID 1445)
Give the value in µM but do not write µM after it.

Some entries whose results are on file:
Molecule | Target Entity | Uom | IC50
Nc1nnc(CC(=O)N/N=C/C2C=C([N+](=O)[O-])C=C(Br)C2=O)s1 (stereo not drawn) | M1 family aminopeptidase (Plasmodium falciparum (isolate FcB1 / Columbia), UniProt O96935) | µM | 30
COC1=CC(/C=C(\C#N)c2nc3ccccc3s2)C=C([N+](=O)[O-])C1=O (stereo not drawn) | M1 family aminopeptidase (Plasmodium falciparum (isolate FcB1 / Columbia), UniProt O96935) | µM | 11
COC1=CC(C=NNC(=O)C(Cc2c[nH]c3ccccc23)NC(=O)OCc2ccccc2)C=C([N+](=O)[O-])C1=O (stereo not drawn) | M1 family aminopeptidase (Plasmodium falciparum (isolate FcB1 / Columbia), UniProt O96935) | µM | 4.75
COC1=CC(C=NNC(=O)[C@H](Cc2c[nH]c3ccccc23)NC(=O)OCC(C)C)C=C([N+](=O)[O-])C1=O (stereo partly drawn) | M1 family aminopeptidase (Plasmodium falciparum (isolate FcB1 / Columbia), UniProt O96935) | µM | 12.2

Input CCOc1cc(CN=Nc2nc(O)c(CC(=O)O)s2)ccc1OS(=O)(=O)c1ccc(C)cc1 . Output IC50: 47.8

// field: IC50; key: COc1cc(Br)c(C2c3c(-c4cccnc4)n[nH]c3OC(=N)C2C#N)cc1OC (stereo not drawn) ; value = 44.6

What the record says about O=C1NC(=O)C(N=Nc2cc([N+](=O)[O-])ccc2O)C(=O)N1 : IC50 is 11.4

Looking up O=C1OC(C(C=Nc2cc(Cl)ccc2O)[N+](=O)[O-])c2ccccc21 (stereo not drawn) , I found its IC50 recorded as 48.8

For reference, reported IC50 for CC(NNC(=O)c1cccc(Cl)c1)=C1C(=O)c2ccccc2C1=O stands at 40.8

The molecule identified as C=c1[nH]n(-c2nnc(C)c(=O)[nH]2)c(=O)c1=Cc1ccc(N(CC)CC)cc1 registered its IC50 at 42.6

Lab note: CCN1C(=O)/C(=N\NC(=O)c2cccs2)c2ccccc21 gave IC50 of 70.2

Item: CC(=O)N1N=C(C2C(=O)N(C)C(=O)N(C)C2=O)CC1c1ccccc1 (stereo not drawn) | IC50: 16

Data point: CC(NNC(=O)c1cc2ccccc2cc1O)=C1C(=O)c2ccccc2C1=O ; IC50 = 12

Just so you know, measured IC50 for Cc1cc(C(=O)NN=CC2C=C(Cl)C=C([N+](=O)[O-])C2=O)[nH]n1 (stereo not drawn) came out at 52.3

// CN1C(=O)/C(=C/c2ccc(-c3ccccc3[N+](=O)[O-])o2)S/C1=N/c1ccc(Cl)c(C(=O)O)c1 : IC50 value = 16.1

According to the records, this molecule CCOC(=O)C1C(=O)C(=Cc2ccc(OCC(=O)O)c(OCC)c2)SC1=Nc1ccc(C)cc1 (stereo not drawn) displays IC50 of 48.6

Please fill in: IC50 reported for COc1ccc(CN=Nc2nc(O)c(CC(=O)O)s2)cc1OCc1ccc(Cl)cc1 = 66.7

IC50 reported for this molecule COc1ccc(OC)c(C2C(C(=O)Nc3cccnc3)=C(C)N=C3CCCC(=O)C32)c1 (stereo not drawn) : 52.9

====

Catalogue of IC50 readings, one per entry.
Target Entity: M1 family aminopeptidase (Plasmodium falciparum (isolate FcB1 / Columbia))
Measurement Protocol: P. falciparum M1AAP inhibitors, biochemical, fluorogenic H-Leu-NHMec substrate, 1536-well (AID 1445)
Field format: number, assumed µM, no unit text.

Examples with answers:
Compound | Numeric Readout
CNC(=S)N/N=C1\C(=O)Nc2ccccc21 | 47.9
CCOC(=O)C1C(CC)=Nc2ccccc2N=C1NS(=O)(=O)c1cc(Br)ccc1Br (stereo not given) | 30.3
Cc1nnc(=O)[nH]c1N=NCc1cccs1 | 25.8

Kindly note the recorded IC50 for CCCCCCC(=O)N(O)c1cc(O)n(-c2ccccc2)c1O , which is 66.5

Recorded IC50 (compound O=C1C([N+](=O)[O-])=CC=CC1/C=N/NC(=O)C1COc2ccccc2O1 (stereo not given) ): 31.4

Data provenance: BindingDB's records for doi:10.7270/Q27H1H0J
